Source: patent US5672715A

Measured inhibition at 7.95803 g/ha, listed per entry.
- System: Velvetleaf
- Experiment Notes: pre-emergence herbicide test
- Type: in vivo
- Experimental Parameters: Abutilon theophrasti, pre-emergence, 0.0071 lb/A; read-out: % plant inhibition
Please reply with the bare figure in % and do not write the unit itself.

>  <Molecule Smiles>
COc1cc(-c2nn(C)c(C(F)(F)F)c2C)c(F)cc1[N+](=O)[O-]

>  <Assayed System>
Velvetleaf

>  <Units Text>
%

>  <inhibition at 7.95803 g/ha>
20

$$$$

-- ask Form entry - test system: Velvetleaf; read-out: inhibition at 7.95803 g/ha; molecule: "C#CCOc1cc(-c2nn(C)c(C(F)(F)F)c2C)c(F)cc1Cl"
-- reply 100

-- ask Proceed to "Cc1c(-c2cc(OCC(=O)OC(C)C)c(Cl)cc2F)nn(C)c1C(F)(F)F"
-- reply 100

-- ask Proceed to "COc1cc(-c2nn(C)c(C(F)(F)F)c2C)c(F)cc1Cl"
-- reply 98

###

- Tested on: Yellow Nutsedge
- Experiment Notes: post-emergence herbicide test
- Assay type: in vivo
- Experimental Parameters: Cyperus, 4.5 lb/A, read-out: % plant inhibition
Measured inhibition at 5043.82 g/ha, listed per entry.
Please reply with the bare figure in % and do not write the unit itself.

Solved cases below.
>  <Molecule>
Cc1c(-c2cc(F)ccc2F)nn(C)c1C(F)(F)F [Compound 1]

>  <Units Text>
%

>  <Meas Value>
30

$$$$
>  <Molecule>
Cn1nc(-c2cc(F)ccc2F)c(C=O)c1C(F)(F)F [Compound 34]

>  <Units Text>
%

>  <Meas Value>
0

$$$$
>  <Molecule>
Cc1c(-c2cc(O)c(Cl)cc2F)nn(C)c1C(F)(F)F [Compound 40]

>  <Units Text>
%

>  <Meas Value>
0

$$$$

-- ask // query inhibition at 5043.82 g/ha value for entry Cc1c(-c2cc(F)c([N+](=O)[O-])cc2F)nn(C)c1C(F)(F)F [Compound 35]
-- reply 0

###

Measured inhibition at 7.95803 g/ha, listed per entry.
- System: Barnyardgrass
- Experiment Notes: pre-emergence herbicide test
- Assay type: in vivo
- Experimental Parameters: Echinochloa crus-galli, pre-emergence, 0.0071 lb/A; read-out: % plant inhibition
Please reply with the bare figure in % and do not write the unit itself.

-- ask // query inhibition at 7.95803 g/ha value for entry "Cc1c(-c2cc(OCC(=O)OC(C)C)c(Cl)cc2F)nn(C)c1C(F)(F)F"
-- reply 0

-- ask Proceed to "C#CCOc1cc(-c2nn(C)c(C(F)(F)F)c2C)c(F)cc1Cl"
-- reply 80

-- ask Proceed to "COc1cc(-c2nn(C)c(C(F)(F)F)c2C)c(F)cc1[N+](=O)[O-]"
-- reply 0

-- ask Proceed to "COc1cc(-c2nn(C)c(C(F)(F)F)c2C)c(F)cc1Cl"
-- reply 80

###

- System: Downy Brome
- Experiment Notes: pre-emergence herbicide test
- Format: in vivo
- Experimental Parameters: Bromus tectorum, pre-emergence, 0.25 lb/A; read-out: % plant inhibition
Respond with Yes for inhibition at 280.212 g/ha values of 20% and above, No for values below.

-- ask Is it the case that CCOC(=O)CCCOC(=O)c1cc(-c2nn(C)c(C(F)(F)F)c2C)c(F)cc1Cl [Compound 24] has inhibition at 280.212 g/ha reaching or exceeding 20%?
-- reply Yes

-- ask Proceed to COCCOC(=O)c1cc(-c2nn(C)c(C(F)(F)F)c2C)c(F)cc1Cl [Compound 56]
-- reply Yes

-- ask Proceed to Cc1c(-c2cc(C(=O)OCSC#N)c(Cl)cc2F)nn(C)c1C(F)(F)F [Compound 50]
-- reply No

-- ask Proceed to Cc1c(-c2cc(C(=O)OCC(C)C)c(Cl)cc2F)nn(C)c1C(F)(F)F [Compound 45]
-- reply Yes

-- ask Proceed to Cc1c(-c2cc(C(=O)OCc3ccccc3)c(Cl)cc2F)nn(C)c1C(F)(F)F [Compound 41]
-- reply Yes

-- ask Proceed to Cc1c(-c2cc(C(=O)OC3CCOC3)c(Cl)cc2F)nn(C)c1C(F)(F)F (stereo not shown) [Compound 25]
-- reply No

-- ask Proceed to Cc1cc(-c2nn(C)c(C(F)(F)F)c2C)c(F)cc1Cl [Compound 33]
-- reply No

-- ask Proceed to CCCOC(=O)c1cc(-c2nn(C)c(C(F)(F)F)c2C)c(F)cc1Cl [Compound 19]
-- reply Yes

-- ask Proceed to CCOC(=O)C=C(COC(=O)c1cc(-c2nn(C)c(C(F)(F)F)c2C)c(F)cc1Cl)OC [Compound 44]
-- reply No

-- ask Proceed to CC(C)OC(=O)c1cc(-c2nn(C)c(C(F)(F)F)c2CO)c(F)cc1Cl [Compound 14]
-- reply Yes

-- ask Proceed to CCC(CC)COC(=O)c1cc(-c2nn(C)c(C(F)(F)F)c2C)c(F)cc1Cl [Compound 46]
-- reply No

-- ask Proceed to CCCCCCCCCCCCOC(=O)c1cc(-c2nn(C)c(C(F)(F)F)c2C)c(F)cc1Cl [Compound 49]
-- reply No

-- ask Proceed to Cc1c(-c2cc(C(=O)OCC(=O)c3ccccc3)c(Cl)cc2F)nn(C)c1C(F)(F)F [Compound 43]
-- reply No

-- ask Proceed to Cc1c(-c2cc(C(=O)O)c(Cl)cc2F)nn(C)c1C(F)(F)F [Compound 2]
-- reply Yes

-- ask Proceed to CC(C)OC(=O)c1cc(-c2nn(C)c(C(F)(F)F)c2C=O)c(F)cc1Cl [Compound 12]
-- reply Yes

-- ask Proceed to CCOC(=O)COC(=O)c1cc(-c2nn(C)c(C(F)(F)F)c2C)c(F)cc1Cl [Compound 17]
-- reply Yes

-- ask Proceed to Cc1c(-c2cc(C(=O)OCCC(C)C)c(Cl)cc2F)nn(C)c1C(F)(F)F [Compound 51]
-- reply Yes

###

- Test system: Barnyardgrass
- Experiment Notes: post-emergence herbicide test
- Assay type: in vivo
- Experimental Parameters: Echinochloa crus-galli, post-emergence, 4.5 lb/A; read-out: % plant inhibition
Recorded Endpoint: inhibition at 5043.82 g/ha (%)
Please reply with the bare figure in % and do not write the unit itself.

Solved cases below.
>  <Molecule Smiles>
Cc1c(-c2cc(F)ccc2F)nn(C)c1C(F)(F)F

>  <Recorded Endpoint>
inhibition at 5043.82 g/ha

>  <Meas Value>
0

$$$$
>  <Molecule Smiles>
Cn1nc(-c2cc(F)ccc2F)c(C=O)c1C(F)(F)F

>  <Recorded Endpoint>
inhibition at 5043.82 g/ha

>  <Meas Value>
10

$$$$
>  <Molecule Smiles>
Cc1c(-c2cc(F)c([N+](=O)[O-])cc2F)nn(C)c1C(F)(F)F

>  <Recorded Endpoint>
inhibition at 5043.82 g/ha

>  <Meas Value>
65

$$$$

# evaluate next
-- ask // query inhibition at 5043.82 g/ha value for entry "Cc1c(-c2cc(O)c(Cl)cc2F)nn(C)c1C(F)(F)F"
-- reply 85

###

Measured inhibition at 5043.82 g/ha, listed per entry.
- Test system: Rice
- Experiment Notes: pre-emergence herbicide test
- Format: in vivo
- Experimental Parameters: Oryza sativa, 4.5 lb/A, read-out: % plant inhibition
Please reply with the bare figure in % and do not write the unit itself.

Solved cases below.
>  <Molecule Smiles>
Cc1c(-c2cc(O)c(Cl)cc2F)nn(C)c1C(F)(F)F

>  <Assayed System>
Rice

>  <Units Text>
%

>  <inhibition at 5043.82 g/ha>
65

$$$$
>  <Molecule Smiles>
Cc1c(-c2cc(F)ccc2F)nn(C)c1C(F)(F)F

>  <Assayed System>
Rice

>  <Units Text>
%

>  <inhibition at 5043.82 g/ha>
0

$$$$
>  <Molecule Smiles>
Cc1c(-c2cc(F)c([N+](=O)[O-])cc2F)nn(C)c1C(F)(F)F

>  <Assayed System>
Rice

>  <Units Text>
%

>  <inhibition at 5043.82 g/ha>
0

$$$$

# evaluate next
-- ask Form entry - test system: Rice; read-out: inhibition at 5043.82 g/ha; molecule: "Cn1nc(-c2cc(F)ccc2F)c(C=O)c1C(F)(F)F"
-- reply 0

###

- Tested on: Cocklebur
- Experiment Notes: pre-emergence herbicide test
- Format: in vivo
- Experimental Parameters: Xanthium strumarium, pre-emergence, 0.25 lb/A; read-out: % plant inhibition
Measured inhibition at 280.212 g/ha, listed per entry.
Please reply with the bare figure in % and do not write the unit itself.

>  <Compound>
CC(=O)CCCOC(=O)c1cc(-c2nn(C)c(C(F)(F)F)c2C)c(F)cc1Cl

>  <Assayed System>
Cocklebur

>  <inhibition at 280.212 g/ha (%)>
15

$$$$
>  <Compound>
Cc1c(-c2cc(CS(C)(=O)=O)c(Cl)cc2F)nn(C)c1C(F)(F)F

>  <Assayed System>
Cocklebur

>  <inhibition at 280.212 g/ha (%)>
10

$$$$
>  <Compound>
Cc1c(-c2cc(CS)c(Cl)cc2F)nn(C)c1C(F)(F)F

>  <Assayed System>
Cocklebur

>  <inhibition at 280.212 g/ha (%)>
25

$$$$

-- ask // query inhibition at 280.212 g/ha value for entry "C=CCOC(=O)c1cc(-c2nn(C)c(C(F)(F)F)c2C)c(F)cc1Cl"
-- reply 35

-- ask Proceed to "CC(C)OC(=O)c1cc(-c2nn(C)c(C(F)(F)F)c2C(F)F)c(F)cc1Cl"
-- reply 70

-- ask Proceed to "CCCOC(=O)c1cc(-c2nn(C)c(C(F)(F)F)c2C)c(F)cc1Cl"
-- reply 60

-- ask Proceed to "Cn1nc(-c2cc(C(=O)O)c(Cl)cc2F)c(C=O)c1C(F)(F)F"
-- reply 5

-- ask Proceed to "COc1cc(-c2nn(C)c(C(F)(F)F)c2C)c(F)cc1Cl"
-- reply 60
